Assay system: CYP2C8 (Homo sapiens)
Sequence (P10632 whole entry): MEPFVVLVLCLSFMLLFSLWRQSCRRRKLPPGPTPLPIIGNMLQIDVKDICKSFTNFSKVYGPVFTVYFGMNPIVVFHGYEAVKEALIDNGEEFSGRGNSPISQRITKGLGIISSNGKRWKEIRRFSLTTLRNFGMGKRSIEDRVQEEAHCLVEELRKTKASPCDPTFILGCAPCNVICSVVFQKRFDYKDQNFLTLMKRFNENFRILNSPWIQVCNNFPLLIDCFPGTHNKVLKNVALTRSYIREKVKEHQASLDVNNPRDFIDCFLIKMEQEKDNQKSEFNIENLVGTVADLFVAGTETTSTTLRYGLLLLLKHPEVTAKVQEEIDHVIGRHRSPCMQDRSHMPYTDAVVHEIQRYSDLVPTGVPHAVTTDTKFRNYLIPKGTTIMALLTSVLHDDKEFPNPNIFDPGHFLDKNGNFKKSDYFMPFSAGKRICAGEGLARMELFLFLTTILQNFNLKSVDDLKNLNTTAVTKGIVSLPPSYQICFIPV
Protocol text: CYP inhibition in human liver microsomes
Stated conditions: human, human liver microsomes, probe paclitaxel

| Molecule | Endpoint unit | activity at 20 min, 100 µM |
| --- | --- | --- |
| CCc1cc(Cl)c(OC)c(N2CCN(CC(O)CCNC(=O)c3cc4ccccc4[nH]3)CC2)c1 (stereo not shown) | % | 80.6 |

----------
Assay system: CYP2C9 (Homo sapiens)
Sequence (P11712 whole entry): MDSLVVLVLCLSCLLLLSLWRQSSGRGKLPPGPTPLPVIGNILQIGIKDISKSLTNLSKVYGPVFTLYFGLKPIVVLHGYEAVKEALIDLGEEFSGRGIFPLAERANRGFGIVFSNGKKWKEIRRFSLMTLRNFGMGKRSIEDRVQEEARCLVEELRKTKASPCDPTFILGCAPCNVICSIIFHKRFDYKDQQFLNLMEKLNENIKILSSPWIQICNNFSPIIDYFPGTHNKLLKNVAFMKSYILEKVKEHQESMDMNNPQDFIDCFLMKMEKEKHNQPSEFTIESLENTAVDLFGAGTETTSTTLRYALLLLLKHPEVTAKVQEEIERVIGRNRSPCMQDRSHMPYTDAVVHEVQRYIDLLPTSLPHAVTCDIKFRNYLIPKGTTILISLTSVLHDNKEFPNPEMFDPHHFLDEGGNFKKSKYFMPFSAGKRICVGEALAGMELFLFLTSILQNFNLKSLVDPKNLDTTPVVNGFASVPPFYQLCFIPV
Protocol text: CYP inhibition in human liver microsomes
Stated conditions: human, human liver microsomes, probe diclofenac
Endpoint: activity at 20 min, 0.3 µM

| Molecule | Readout value |
| --- | --- |
| CCc1cc(Cl)c(OC)c(N2CCN(CC(O)CCNC(=O)c3cc4ccccc4[nH]3)CC2)c1 (stereo not shown) | 79% |
